Attribution: patent US20260070987A1

# EXPERIMENTAL TARGET: equine FcRn (large alpha subunit p51) / equine beta-2-microglobulin complex, biotinylated (equine) (UniProt P30441)
# EXPERIMENT SUMMARY: SPR (Biacore), pH 6
READOUT: Kd (nM)
Lab book: enter the figure in nM, no units written.

{"BINDER": "equine IgG1 N434G (antibody, part only; not given: variable domains, not shown: another chain or arm of the molecule) constant: ASTTAPKVFALAPGCGTTSDSTVALGCLVSGYFPEPVKVSWNSGSLTSGVHTFPSVLQSSGFYSLSSMVTVPASTWTSETYICNVVHAASNFKVDKRIEPIPDNHQKVCDMSKCPKCPAPELLGGPSVFIFPPNPKDTLMITRTPEVTCVVVDVSQENPDVKFNWYMDGVEVRTATTRPKEEQFNSTYRVVSVLRIQHQDWLSGKEFKCKVNNQALPQPIERTITKTKGRSQEPQVYVLAPHPDELSKSKVSVTCLVKDFYPPEINIEWQSNGQPELETKYSTTQAQQDSDGSYFLYSKLSVDRNRWQQGTTFTCGVMHEALHGHYTQKNVSKNPGK", "READOUT": "Kd", "VALUE OBSERVED": 5.57}

Now consider a different binder.
INPUT: If you can, please state the reported Kd value of equine IgG1 Y436W (antibody, part only; not given: Variable domains, not shown: another chain or arm of the molecule) constant: ASTTAPKVFALAPGCGTTSDSTVALGCLVSGYFPEPVKVSWNSGSLTSGVHTFPSVLQSSGFYSLSSMVTVPASTWTSETYICNVVHAASNFKVDKRIEPIPDNHQKVCDMSKCPKCPAPELLGGPSVFIFPPNPKDTLMITRTPEVTCVVVDVSQENPDVKFNWYMDGVEVRTATTRPKEEQFNSTYRVVSVLRIQHQDWLSGKEFKCKVNNQALPQPIERTITKTKGRSQEPQVYVLAPHPDELSKSKVSVTCLVKDFYPPEINIEWQSNGQPELETKYSTTQAQQDSDGSYFLYSKLSVDRNRWQQGTTFTCGVMHEALHNHWTQKNVSKNPGK .
OUTPUT: 10.2
